Test system: Escherichia coli TOP10;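 note: peptides expressed intracellularly from a pBAD plasmid library in pooled LB shake-flask culture, induced with 0.3% L-arabinose, DNA abundance read by NGS, three biological replicates, DESeq2 with apeglm shrinkage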
method: shrunken log2 fold change of peptide-encoding DNA abundance (4.5 h post-induction vs induction); higher = less antimicrobial activity (less host growth inhibition)
condition label: time post-induction: 4.5 h; library: site-saturation at positions 5, 18, 19, 20
readout label: shrunken log2 fold change
Answers are plain numbers.

See these solved cases before continuing.
RRIRQRPPRLPRPRPRPEWHPRP
0.33
RRIRTRPPRLPRPRPRPNLIPRP
-0.408
RRIRCRPPRLPRPRPRPFNYPRP
-0.836
RRIRMRPPRLPRPRPRPFIYPRP
0.892
RRIRIRPPRLPRPRPRPTFNPRP
-0.595
RRIRCRPPRLPRPRPRPLNHPRP
0.519
RRIRARPPRLPRPRPRPRQNPRP
0.723
RRIRWRPPRLPRPRPRPSCMPRP
0.11
RRIRCRPPRLPRPRPRPECFPRP
0.165
RRIRCRPPRLPRPRPRPIKGPRP
-0.0586

I need shrunken log2 fold change for every entry listed below, if you could help.
1. RRIRRRPPRLPRPRPRPYMFPRP
2. RRIRKRPPRLPRPRPRPTFNPRP
3. RRIRWRPPRLPRPRPRPSQCPRP
4. RRIRLRPPRLPRPRPRPCALPRP
5. RRIRWRPPRLPRPRPRPGDRPRP

Reply |
1: -0.448; 2: -0.344; 3: 0.0963; 4: -0.0607; 5: 0.468

Ask | Provide one value: measured shrunken log2 fold change of RRIRMRPPRLPRPRPRPNTQPRP
Reply | 0.0014
